Target: Prostaglandin G/H synthase 1 (Mus musculus, UniProt P22437)
Sequence (P22437 whole entry): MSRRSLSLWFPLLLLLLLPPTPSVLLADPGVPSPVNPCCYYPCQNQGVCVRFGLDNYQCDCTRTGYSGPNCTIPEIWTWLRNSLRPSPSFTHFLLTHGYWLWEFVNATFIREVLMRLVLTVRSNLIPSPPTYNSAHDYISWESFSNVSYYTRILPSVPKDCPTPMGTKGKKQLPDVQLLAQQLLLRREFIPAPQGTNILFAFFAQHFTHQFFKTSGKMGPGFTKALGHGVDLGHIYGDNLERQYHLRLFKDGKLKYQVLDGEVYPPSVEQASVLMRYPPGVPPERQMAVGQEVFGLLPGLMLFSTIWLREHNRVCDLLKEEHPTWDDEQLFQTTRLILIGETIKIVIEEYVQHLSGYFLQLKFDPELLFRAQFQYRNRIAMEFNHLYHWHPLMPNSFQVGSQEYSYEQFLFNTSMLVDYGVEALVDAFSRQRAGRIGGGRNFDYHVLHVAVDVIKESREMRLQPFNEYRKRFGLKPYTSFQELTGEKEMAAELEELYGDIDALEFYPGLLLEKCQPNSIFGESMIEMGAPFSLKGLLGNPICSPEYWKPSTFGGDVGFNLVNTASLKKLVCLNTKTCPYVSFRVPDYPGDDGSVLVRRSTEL
Experiment: Inhibitory activity against murine prostaglandin G/H synthase 1.
pIC50: −log10 of the molar value.
Measured Property: pIC50

Worked set:
O=C(/C=C/c1ccco1)c1cccs1	4.22
O=C(/C=C/c1ccsc1)c1cccnc1	4.89

[P] O=C(/C=C/c1ccco1)c1ccc(Cl)s1
[Q] O=C(/C=C/c1ccsc1)c1ccccn1
[R] O=C(/C=C/c1ccccc1)c1ccccn1
[S] CS(=O)(=O)Nc1ccc([N+](=O)[O-])cc1OC1CCCCC1 [NS-398]
**Query** Order the entries by their reported pIC50, beginning at the minimum. # answer = labels listed in requested order
**Result** P, R, Q, S
(P: 4.24, R: 4.49, Q: 4.89, S: 5.78)
